# Tested on: Fibroblast
# Experiment description: Multiplex assay against human fibroblast
# Assay type: toxicity, cell-based
# Condition summary: 12 h, 10 µM, compound concentration 10 uM, replicate 2
Readout: Population Fragmented Nuclei (%)

Recorded results for 5 compounds are shown here.
NCCc1cn(S(=O)(=O)c2c(Cl)nc3sccn23)c2ccccc12.O=C(O)C(=O)O ... 24%
CC[C@@H](C)Nc1nc(C)nc2c(-c3ccc(OC)nc3C)c(C)nn12 ... 21%
Cl.NCCc1ccc(O)c(O)c1 [DOPAMINE HYDROCHLORIDE] ... 35%
CCCOc1ccc2[nH]cc(C3=CCNCC3)c2n1.Cl ... 31%
CC(=O)Nc1cccc2c1c(Sc1ccc(Cl)cc1)c(C)n2CC(=O)O ... 35%

Record CC(C)COc1ccc(CNC(=O)N(Cc2ccc(F)cc2)C2CCN(C)CC2)cc1 , field Population Fragmented Nuclei (%): 31%

// recorded Population Fragmented Nuclei (%) for CN(C)C(=O)Cn1cc(-c2ccc(-c3cncc4ccccc34)cc2)cn1 : 40%

Consider CCCCCC(O)/C=C/[C@H]1C(=O)CC(O)C1C/C=C\CCCC(=O)O (stereo partly drawn) . Its measured Population Fragmented Nuclei (%) is 20%

Field Population Fragmented Nuclei (%) (entry Cc1cnc(-c2cc(N3CCN(C(=O)CCS(C)(=O)=O)CC3)ncc2Cl)c(C)c1 ) reads 21%

// field: Population Fragmented Nuclei (%); key: CN1CCN(c2cc(-c3ccccc3)nc(N)n2)CC1 ; value = 40%

Looking up Cl.N=C(N)NC(=O)Cc1c(Cl)cccc1Cl [GUANFACINE HYDROCHLORIDE] , I see its Population Fragmented Nuclei (%) listed as 22%

// field: Population Fragmented Nuclei (%); key: CC(C)(C)c1cc(NC(=O)Nc2ccc(-c3cn4c(n3)sc3cc(OCCN5CCOCC5)ccc34)cc2)no1 ; value = 35%

These entries and their values trace back to ChEMBL document CHEMBL5058577.
